# System: K562 CRISPRi cells
# assay: Perturb-seq pooled growth measurement (sgRNA counts, growth phenotype γ, relative activity)
# Type: cell-based, human
# setup.conditions: γ relative to perfectly matched sgRNA (_00) of the same gene, day 10
quantity: relative_activity_day10

RAN_ + _131356438.23-P1P2_00 (guide GGCGGTCGCTGCGCTTAGGG; listed as DNA, chemistry not fully specified)    1
CAD_ + _27440280.23-P1P2_13 (guide GGCTGGAGAGAAGCCTGGCG; listed as DNA, chemistry not fully specified)    0.241
ALDOA_ + _30077139.23-P1P2_13 (guide GGTCACCAGGACCCCTTTTG; listed as DNA, chemistry not fully specified)    0.0006011
MTOR_ + _11322547.23-P1P2_06 (guide GGGCAGGGGGGCTGAAGCGG; listed as DNA, chemistry not fully specified)    0.532
RPS14_ + _149829238.23-P1P2_04 (guide GAGGCCCGCGCGCGACAATC; listed as DNA, chemistry not fully specified)    0.3919
RAN_ + _131356438.23-P1P2_02 (guide GGCGGCCGCTGCGCTTAGGG; listed as DNA, chemistry not fully specified)    1.264
RAN_ + _131356438.23-P1P2_12 (guide GGCGGTCGCTGCGCTTAGGT; listed as DNA, chemistry not fully specified)    0.2122
RPS18_ + _33239917.23-P1P2_00 (guide GCTGCGATGCCGCTGGATCA; listed as DNA, chemistry not fully specified)    1
RPS14_ + _149829238.23-P1P2_08 (guide GAGGCCCGGGCTCGACAATC; listed as DNA, chemistry not fully specified)    0.001223
GNB2L1_ + _180670873.23-P1P2_08 (guide GTGCAAGGTGGCGGCAGGAG; listed as DNA, chemistry not fully specified)    1.033
SEC61A1_ −_127771295.23-P1_01 (guide GGCACTGTCGTGTCTCTCGG; listed as DNA, chemistry not fully specified)    0.5184
BCR_ + _23523092.23-P1P2_05 (guide GCGCGCGGCGCCCGTCTCAG; listed as DNA, chemistry not fully specified)    0.4434

###

# Tested on: K562 CRISPRi cells
# assay: Perturb-seq pooled growth measurement (sgRNA counts, growth phenotype γ, relative activity)
# Assay type: cell-based, human
# setup.conditions: pooled growth phenotype γ of the Perturb-seq sgRNA, day 5, K562 CRISPRi cells
quantity: gamma_day5

DUT_ + _48624411.23-P1P2_08 (guide GCGAGCGAGGAGGCCACCGG; listed as DNA, chemistry not fully specified)    −0.7725
MTOR_ + _11322547.23-P1P2_06 (guide GGGCAGGGGGGCTGAAGCGG; listed as DNA, chemistry not fully specified)    −0.3933
DBR1_ + _137893744.23-P1P2_08 (guide GTTTGCAGTAGTCTACACCC; listed as DNA, chemistry not fully specified)    −0.03529
RPL9_ + _39460483.23-P1P2_05 (guide GGATGTTTCGGTGCTCGTGG; listed as DNA, chemistry not fully specified)    −0.6073
POLR1D_ + _28196016.23-P1_00 (guide GGGAAGCAAGGACCGACCGA; listed as DNA, chemistry not fully specified)    −0.7594
RPL9_ + _39460483.23-P1P2_01 (guide GGATGATTCTGTGCTCGTGG; listed as DNA, chemistry not fully specified)    −0.8528
